These data points were gathered from paper PMC6370995.

TEST_PROTOCOL: 6-Month Oral Toxicity Study in Sprague Dawley Rats
Assay type: in vivo, rat
STUDY_CONDITIONS: male, Sprague-Dawley, rat, plasma, oral; Day 1, 100 mg/kg/day; read-out: Total Cmax, male rats
READOUT_NAME: Cmax (ng/mL)

[[record]]
compound = "O=C(Cc1ccc(F)cc1)Nn1c(C2CC2)nc2cc(F)ccc2c1=O [PF‐04895162]"
result_value = 2460


###

TEST_PROTOCOL: Phase 1 clinical study in healthy subjects: plasma pharmacokinetics and food effect
Assay type: in vivo, human
STUDY_CONDITIONS: human, plasma, oral, 300 mg, 300 mg BID, Day 7, subject with the highest ALT values; read-out: Cmax, Subject 8 (converted)
READOUT_NAME: Cmax (ng/mL)

[[record]]
molecule = "O=C(Cc1ccc(F)cc1)Nn1c(C2CC2)nc2cc(F)ccc2c1=O [PF‐04895162]"
readout_name = "Cmax"
result_value = 10800


###

TEST_PROTOCOL: 6-Month Oral Toxicity Study in Sprague Dawley Rats
Type: in vivo, rat
STUDY_CONDITIONS: female, Sprague-Dawley, rat, plasma, oral; Day 1, 100 mg/kg/day; read-out: Total Cmax, female rats
READOUT_NAME: Cmax (ng/mL)

[[record]]
compound_smiles = "O=C(Cc1ccc(F)cc1)Nn1c(C2CC2)nc2cc(F)ccc2c1=O"
uom = "ng/mL"
result_value = 5350


###

TARGET_ENTITY: MRP4 (Homo sapiens, UniProt O15439)
Sequence (O15439 whole entry): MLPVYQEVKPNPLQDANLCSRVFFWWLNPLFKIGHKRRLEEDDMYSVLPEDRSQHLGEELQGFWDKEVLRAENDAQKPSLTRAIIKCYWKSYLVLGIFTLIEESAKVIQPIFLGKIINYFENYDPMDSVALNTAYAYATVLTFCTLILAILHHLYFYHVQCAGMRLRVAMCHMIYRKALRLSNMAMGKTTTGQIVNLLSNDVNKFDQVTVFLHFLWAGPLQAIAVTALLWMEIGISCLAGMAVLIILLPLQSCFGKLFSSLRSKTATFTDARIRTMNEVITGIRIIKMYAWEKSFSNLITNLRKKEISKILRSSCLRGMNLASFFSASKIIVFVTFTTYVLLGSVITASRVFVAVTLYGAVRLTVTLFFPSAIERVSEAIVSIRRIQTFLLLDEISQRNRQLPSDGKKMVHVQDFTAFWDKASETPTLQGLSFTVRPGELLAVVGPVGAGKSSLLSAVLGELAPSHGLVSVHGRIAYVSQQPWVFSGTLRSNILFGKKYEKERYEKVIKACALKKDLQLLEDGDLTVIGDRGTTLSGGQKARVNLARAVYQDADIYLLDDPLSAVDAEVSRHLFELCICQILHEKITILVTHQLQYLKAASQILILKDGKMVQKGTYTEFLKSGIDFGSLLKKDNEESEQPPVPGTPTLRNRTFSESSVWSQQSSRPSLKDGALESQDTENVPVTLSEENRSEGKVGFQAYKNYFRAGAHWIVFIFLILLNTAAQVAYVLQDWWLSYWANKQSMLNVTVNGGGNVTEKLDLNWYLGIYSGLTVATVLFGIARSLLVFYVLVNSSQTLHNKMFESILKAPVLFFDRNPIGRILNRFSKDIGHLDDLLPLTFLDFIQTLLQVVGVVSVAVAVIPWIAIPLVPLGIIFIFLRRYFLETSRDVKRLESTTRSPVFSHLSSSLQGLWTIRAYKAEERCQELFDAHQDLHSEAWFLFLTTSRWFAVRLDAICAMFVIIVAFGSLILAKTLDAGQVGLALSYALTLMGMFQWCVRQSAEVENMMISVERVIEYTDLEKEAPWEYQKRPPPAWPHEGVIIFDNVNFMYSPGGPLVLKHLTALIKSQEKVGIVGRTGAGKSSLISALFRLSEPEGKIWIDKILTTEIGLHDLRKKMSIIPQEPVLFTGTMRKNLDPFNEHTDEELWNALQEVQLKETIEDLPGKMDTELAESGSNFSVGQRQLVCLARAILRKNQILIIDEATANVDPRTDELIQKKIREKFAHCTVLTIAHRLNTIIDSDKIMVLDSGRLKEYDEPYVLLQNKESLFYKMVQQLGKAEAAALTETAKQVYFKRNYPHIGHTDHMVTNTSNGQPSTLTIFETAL
TEST_PROTOCOL: MRP4 transporter inhibition in vesicles from HEK293 cells
READOUT_NAME: IC50 (µM)

[[record]]
compound = "O=C(Cc1ccc(F)cc1)Nn1c(C2CC2)nc2cc(F)ccc2c1=O [PF‐04895162]"
readout_name = "IC50"
result_value = 121


###

TEST_PROTOCOL: Phase 1 clinical study in healthy subjects: plasma pharmacokinetics and food effect
Assay type: in vivo, human
STUDY_CONDITIONS: human, plasma, oral, 300 mg, Period 3, 300 mg BID fasted, Day 7 (N = 7); geometric mean (%CV); read-out: AUCtau
READOUT_NAME: AUC (ng·h/mL)

[[record]]
compound = "O=C(Cc1ccc(F)cc1)Nn1c(C2CC2)nc2cc(F)ccc2c1=O [PF‐04895162]"
result_value = 85200


###

TEST_PROTOCOL: 7-Day Oral Toxicity Study in Rats (twice daily dosing, GLP)
Assay type: in vivo
STUDY_CONDITIONS: male, rat, in vivo; Day 7, 400 mg/kg/day; read-out: Total Cmax (mean), male rats
READOUT_NAME: Cmax (ng/mL)

[[record]]
molecule = "O=C(Cc1ccc(F)cc1)Nn1c(C2CC2)nc2cc(F)ccc2c1=O [PF‐04895162]"
readout_name = "Cmax"
result_value = 7920


###

TEST_PROTOCOL: 7-Day Oral Toxicity Study in Monkeys
Format: in vivo, cynomolgus monkey
STUDY_CONDITIONS: both sexes, cynomolgus monkey, plasma, oral; Day 7, males and females, 200 mg/kg/day; read-out: total Cmax
READOUT_NAME: Cmax

[[record]]
compound_smiles = "O=C(Cc1ccc(F)cc1)Nn1c(C2CC2)nc2cc(F)ccc2c1=O"
result_value = "> 24000 ng/mL"


###

TARGET_ENTITY: BSEP (Homo sapiens, UniProt O95342)
Sequence (O95342 whole entry): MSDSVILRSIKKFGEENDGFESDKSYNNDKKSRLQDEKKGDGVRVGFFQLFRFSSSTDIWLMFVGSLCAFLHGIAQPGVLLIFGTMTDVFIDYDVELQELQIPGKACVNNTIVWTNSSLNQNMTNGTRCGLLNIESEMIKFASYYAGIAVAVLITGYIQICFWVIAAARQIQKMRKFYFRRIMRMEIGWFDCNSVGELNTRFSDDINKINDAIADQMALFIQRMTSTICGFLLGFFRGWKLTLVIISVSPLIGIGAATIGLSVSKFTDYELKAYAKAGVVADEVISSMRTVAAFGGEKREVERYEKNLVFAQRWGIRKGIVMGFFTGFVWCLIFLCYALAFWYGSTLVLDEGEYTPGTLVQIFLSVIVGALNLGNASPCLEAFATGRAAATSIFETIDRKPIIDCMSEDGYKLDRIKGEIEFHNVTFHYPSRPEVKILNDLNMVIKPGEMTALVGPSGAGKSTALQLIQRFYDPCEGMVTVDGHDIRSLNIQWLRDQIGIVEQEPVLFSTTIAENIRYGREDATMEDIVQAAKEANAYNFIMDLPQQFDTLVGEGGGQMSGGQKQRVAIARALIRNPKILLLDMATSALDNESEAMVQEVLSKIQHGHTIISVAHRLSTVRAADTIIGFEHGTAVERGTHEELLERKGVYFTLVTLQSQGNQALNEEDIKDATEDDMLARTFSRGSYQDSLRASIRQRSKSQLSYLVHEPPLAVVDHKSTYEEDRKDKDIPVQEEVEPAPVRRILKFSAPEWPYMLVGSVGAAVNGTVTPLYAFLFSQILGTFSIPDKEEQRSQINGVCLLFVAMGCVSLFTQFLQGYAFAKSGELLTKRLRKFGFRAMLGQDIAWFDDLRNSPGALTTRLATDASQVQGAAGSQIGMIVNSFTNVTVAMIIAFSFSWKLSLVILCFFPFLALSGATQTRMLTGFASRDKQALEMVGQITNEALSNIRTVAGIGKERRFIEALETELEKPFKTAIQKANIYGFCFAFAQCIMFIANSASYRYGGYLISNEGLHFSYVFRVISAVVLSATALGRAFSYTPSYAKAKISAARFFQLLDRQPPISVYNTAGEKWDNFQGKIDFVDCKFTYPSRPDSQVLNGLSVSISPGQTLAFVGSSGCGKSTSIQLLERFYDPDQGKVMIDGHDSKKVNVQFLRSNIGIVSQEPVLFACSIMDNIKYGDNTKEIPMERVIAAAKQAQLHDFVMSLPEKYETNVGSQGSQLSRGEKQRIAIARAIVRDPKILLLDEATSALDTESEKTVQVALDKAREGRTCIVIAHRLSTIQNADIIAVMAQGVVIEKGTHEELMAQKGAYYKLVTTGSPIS
READOUT_NAME: IC50 (µM)

[[record]]
compound_smiles = "O=C(Cc1ccc(F)cc1)Nn1c(C2CC2)nc2cc(F)ccc2c1=O"
readout_name = "IC50"
uom = "µM"
result_value = 106


###

TEST_PROTOCOL: Phase 1 clinical study in healthy subjects: plasma pharmacokinetics and food effect
Assay type: in vivo, human
STUDY_CONDITIONS: human, plasma, oral, 300 mg, Period 1, 300 mg fasted, Day 1 (N = 10); 12 h interval; geometric mean (%CV); read-out: AUCtau
READOUT_NAME: AUC

[[record]]
compound = "O=C(Cc1ccc(F)cc1)Nn1c(C2CC2)nc2cc(F)ccc2c1=O [PF‐04895162]"
readout_name = "AUC"
result_value = "40800 ng·h/mL"


###

TEST_PROTOCOL: 9-Month Oral Toxicity Study in Cynomolgus Monkeys
Assay type: in vivo, cynomolgus monkey
STUDY_CONDITIONS: cynomolgus monkey, plasma, oral, 100 mg/kg/day; studies >1 month in duration; read-out: total Cmax concentrations in the monkey
Description: A 28-day nasogastric toxicity study was conducted in cynomolgus monkeys at up to 100 mg/kg/day and a 9-month oral toxicity study with a 3-month interim sacrifice was conducted in cynomolgus monkeys at up to 100 mg/kg/day.
READOUT_NAME: Cmax (µM)

[[record]]
compound_smiles = "O=C(Cc1ccc(F)cc1)Nn1c(C2CC2)nc2cc(F)ccc2c1=O"
result_value = 81.6


###

TEST_PROTOCOL: Phase 1 clinical study in healthy subjects: plasma pharmacokinetics and food effect
Format: in vivo, human
STUDY_CONDITIONS: human, plasma, oral, 300 mg, Period 1, 300 mg fasted, Day 1 (N = 10); arithmetic mean ± SD; read-out: t½, terminal half-life (converted)
READOUT_NAME: half-life (h)

[[record]]
compound_smiles = "O=C(Cc1ccc(F)cc1)Nn1c(C2CC2)nc2cc(F)ccc2c1=O"
uom = "h"
result_value = 7.88


###

TEST_PROTOCOL: HepG2 72 hour cytotoxicity assay based on ATP depletion
Format: cell-based
STUDY_CONDITIONS: human, HepG2 cells; HepG2, after 72 hours
READOUT_NAME: IC50 at 72 h

[[record]]
molecule = "O=C(Cc1ccc(F)cc1)Nn1c(C2CC2)nc2cc(F)ccc2c1=O [PF‐04895162]"
result_value = "~130 µM"


###

TEST_PROTOCOL: Phase 1 clinical study in healthy subjects: plasma pharmacokinetics and food effect
Type: in vivo, human
STUDY_CONDITIONS: human, plasma, oral, 300 mg, Period 1, 300 mg fasted, Day 1 (N = 10); total concentration; read-out: Cmax
READOUT_NAME: Cmax (µM)

[[record]]
molecule = "O=C(Cc1ccc(F)cc1)Nn1c(C2CC2)nc2cc(F)ccc2c1=O [PF‐04895162]"
result_value = 12.7


###

TEST_PROTOCOL: 9-Month Oral Toxicity Study in Cynomolgus Monkeys
Format: in vivo, cynomolgus monkey
STUDY_CONDITIONS: both sexes, cynomolgus monkey, plasma, oral; after 9 months, males and females, 100 mg/kg/day; read-out: total Cmax
READOUT_NAME: Cmax

[[record]]
compound_smiles = "O=C(Cc1ccc(F)cc1)Nn1c(C2CC2)nc2cc(F)ccc2c1=O"
result_value = "~29000 ng/mL"


###

TEST_PROTOCOL: Phase 1 clinical study in healthy subjects: plasma pharmacokinetics and food effect
Format: in vivo, human
STUDY_CONDITIONS: human, plasma, oral, 300 mg, Period 3, 300 mg BID fasted, Day 14 (N = 7); geometric mean (%CV); read-out: AUCtau
READOUT_NAME: AUC (ng·h/mL)

[[record]]
compound_smiles = "O=C(Cc1ccc(F)cc1)Nn1c(C2CC2)nc2cc(F)ccc2c1=O"
readout_name = "AUC"
uom = "ng·h/mL"
result_value = 71200


###

TEST_PROTOCOL: Phase 1 clinical study in healthy subjects: plasma pharmacokinetics and food effect
Assay type: in vivo, human
STUDY_CONDITIONS: human, plasma, oral, 300 mg, Period 3, 300 mg BID fasted, Day 14 (N = 7); total concentration
Method: A randomized, double‐blind, third‐party open (i.e., subject and Investigator blind, and Sponsor open), placebo‐controlled study was conducted in healthy subjects to investigate the safety, tolerability, and pharmacokinetics of single and multiple oral doses of PF‐04895162 and to characterize the effect of food on the pharmacokinetics of a single oral dose of PF‐04895162. […]
READOUT_NAME: Cmax at 14 day (µM)

[[record]]
compound_smiles = "O=C(Cc1ccc(F)cc1)Nn1c(C2CC2)nc2cc(F)ccc2c1=O"
readout_name = "Cmax at 14 day"
result_value = 23.6


###

TEST_PROTOCOL: Phase 1 clinical study in healthy subjects: plasma pharmacokinetics and food effect
Assay type: in vivo, human
STUDY_CONDITIONS: human, plasma, oral, 300 mg, Period 3, 300 mg BID fasted, Day 7 (N = 7); geometric mean (%CV)
READOUT_NAME: Cmax at 7 day (ng/mL)

[[record]]
compound = "O=C(Cc1ccc(F)cc1)Nn1c(C2CC2)nc2cc(F)ccc2c1=O [PF‐04895162]"
result_value = 9430

